Task for the reader: assign each of the following compounds its reported Fold change (MIC).
System: P. aeruginosa PAΔ6
TEST: MIC, efflux pump knockout strain PAΔ6
Assay type: cell-based, Pseudomonas aeruginosa
RUN CONDITIONS: WT MIC / PAΔ6 MIC (Table 7)

Solved cases below.
Cc1cc(NS(=O)(=O)c2ccc(N)cc2)no1 ... >16
CN(C)[C@@H]1C(=O)C(C(N)=O)=C(O)[C@@]2(O)C(=O)C3=C(O)c4c(O)cccc4[C@@](C)(O)[C@H]3C[C@@H]12 ... 64

Parameter requested: Fold change (MIC). Apply to each item below.
1. COc1cc(Cc2cnc(N)nc2N)cc(OC)c1OC
2. O=C(N[C@H](CO)[C@H](O)c1ccc([N+](=O)[O-])cc1)C(Cl)Cl

1. >256
2. >128

Taken from patent US20260240869A1.
